Known pIC50 of a selection of compounds
- System: Saccharomyces cerevisiae
- protocol: Antimicrobial activity against Saccharomyces cerevisiae J407alpha expressing ribosomal protein cyh2 and harboring mutation in rpl28
- Format: functional, organism-based
# pIC50 = -log10(concentration in molar units)

compound="C[C@@H]1C[C@@H]([C@H](O)CC2CC(=O)NC(=O)C2)C(=O)[C@@H](C)C1 [CYCLOHEXIMIDE]" readout_label=pIC50 val=4.69

Consider the record given below.
Input: Suppose we examine the compound C/C(=C\[C@H](C)C(=O)C[C@H](O)CC1CC(=O)NC(=O)C1)[C@@H]1OC(=O)/C=C/CC/C=C/C=C\[C@@H]1C ; what pIC50 value has been reported?
Output: 5.96
